src = patent US20150011566A1

Target Or Test System: α1B adrenoceptors (Rattus norvegicus, UniProt P15823)
Construct: from tissue; host or cells: rat liver membranes
Sequence (P15823 1-515): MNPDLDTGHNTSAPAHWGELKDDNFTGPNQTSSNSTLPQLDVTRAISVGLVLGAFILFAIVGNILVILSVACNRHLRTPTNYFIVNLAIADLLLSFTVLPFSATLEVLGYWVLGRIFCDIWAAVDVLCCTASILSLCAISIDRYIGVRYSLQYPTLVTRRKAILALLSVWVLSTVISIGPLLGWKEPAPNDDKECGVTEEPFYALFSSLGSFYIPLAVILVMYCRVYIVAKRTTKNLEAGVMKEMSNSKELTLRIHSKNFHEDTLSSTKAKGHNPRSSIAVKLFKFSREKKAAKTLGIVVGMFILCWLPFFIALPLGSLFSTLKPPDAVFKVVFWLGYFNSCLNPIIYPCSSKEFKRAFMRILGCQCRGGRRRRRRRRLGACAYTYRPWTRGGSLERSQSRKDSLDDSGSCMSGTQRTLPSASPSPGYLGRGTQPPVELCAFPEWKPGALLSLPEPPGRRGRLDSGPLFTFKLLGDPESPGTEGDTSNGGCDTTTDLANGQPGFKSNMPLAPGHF
Assay Procedure: Binding of [3H]-prazosin to α1B adrenoceptors (rat liver membranes)
Reported Conditions: Table 5; Cheng-Prusoff; read-out: α1B Ki
Assay Endpoint: Ki

Here are 4 molecules together with their reported answers.
smiles_data=CCCN1CCN(c2ccccc2OC)CC1 assay_endpoint=Ki endpoint_result="0.511 µM"
smiles_data=CCCCCCCCN1CCN(c2ccccc2OC)CC1 assay_endpoint=Ki endpoint_result="0.173 µM"
smiles_data=CCCCCCN1CCN(c2ccccc2OC)CC1 assay_endpoint=Ki endpoint_result="0.221 µM"
smiles_data=CCN1CCN(c2ccccc2)CC1 assay_endpoint=Ki endpoint_result="0.425 µM"

Turning now to a further record.
input: Which Ki is listed for `CCCCCCCN1CCN(c2ccccc2OC)CC1` ?
output: 0.113 µM
